- assayed-target: 5-HT transporter (Rattus norvegicus)
- Construct: from tissue; host or cells: rat brain synaptosomes (P2 fraction) from medulla and pons
- Sequence (P31652 whole entry): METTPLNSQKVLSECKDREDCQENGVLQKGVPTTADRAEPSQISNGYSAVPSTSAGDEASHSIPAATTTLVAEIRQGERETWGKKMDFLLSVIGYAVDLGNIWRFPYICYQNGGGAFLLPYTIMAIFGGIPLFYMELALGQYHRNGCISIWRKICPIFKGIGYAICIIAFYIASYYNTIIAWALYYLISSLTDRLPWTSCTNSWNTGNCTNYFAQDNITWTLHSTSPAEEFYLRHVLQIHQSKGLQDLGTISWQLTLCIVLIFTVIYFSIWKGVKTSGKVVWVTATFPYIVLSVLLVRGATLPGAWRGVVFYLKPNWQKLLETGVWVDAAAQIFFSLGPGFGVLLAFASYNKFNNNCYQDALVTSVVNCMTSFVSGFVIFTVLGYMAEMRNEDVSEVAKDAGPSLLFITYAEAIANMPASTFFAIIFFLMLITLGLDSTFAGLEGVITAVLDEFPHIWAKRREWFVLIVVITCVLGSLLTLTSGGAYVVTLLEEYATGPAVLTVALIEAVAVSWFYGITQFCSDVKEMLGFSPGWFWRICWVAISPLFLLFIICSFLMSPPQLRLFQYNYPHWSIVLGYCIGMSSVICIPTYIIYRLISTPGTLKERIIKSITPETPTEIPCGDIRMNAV
- assay-summary: 5-HT uptake inhibition in rat brain synaptosomes (medulla and pons), [3H]-5-HT
- Type: biochemical
// values below are reported inhibition at 10 µM
reported-property: inhibition at 10 µM

>>> result("COc1ccc([N+](=O)[O-])cc1CN1CC2(CCN(C(=O)Nc3cccc(C#N)c3)CC2)OC1=O [Example 51]")
"89%"
>>> result("COc1ccc([N+](=O)[O-])cc1CN1CC2(CCN(C(=O)Cc3ccc(OC)c(OC)c3)CC2)OC1=O [Example 150]")
"84%"
>>> result("O=C1OC2(CCN(C(=O)c3cc(C(F)(F)F)cc(C(F)(F)F)c3)CC2)CN1Cc1ccc(C(F)(F)F)cc1 [Example 143]")
"66%"
